test-system: T1, integrin αVβ3 (UniProt P06756 31-992; P05106 27-718)
T1 construct: Coated on the ELISA plate
T1 sequence (P06756 31-992, chain 1 of 2): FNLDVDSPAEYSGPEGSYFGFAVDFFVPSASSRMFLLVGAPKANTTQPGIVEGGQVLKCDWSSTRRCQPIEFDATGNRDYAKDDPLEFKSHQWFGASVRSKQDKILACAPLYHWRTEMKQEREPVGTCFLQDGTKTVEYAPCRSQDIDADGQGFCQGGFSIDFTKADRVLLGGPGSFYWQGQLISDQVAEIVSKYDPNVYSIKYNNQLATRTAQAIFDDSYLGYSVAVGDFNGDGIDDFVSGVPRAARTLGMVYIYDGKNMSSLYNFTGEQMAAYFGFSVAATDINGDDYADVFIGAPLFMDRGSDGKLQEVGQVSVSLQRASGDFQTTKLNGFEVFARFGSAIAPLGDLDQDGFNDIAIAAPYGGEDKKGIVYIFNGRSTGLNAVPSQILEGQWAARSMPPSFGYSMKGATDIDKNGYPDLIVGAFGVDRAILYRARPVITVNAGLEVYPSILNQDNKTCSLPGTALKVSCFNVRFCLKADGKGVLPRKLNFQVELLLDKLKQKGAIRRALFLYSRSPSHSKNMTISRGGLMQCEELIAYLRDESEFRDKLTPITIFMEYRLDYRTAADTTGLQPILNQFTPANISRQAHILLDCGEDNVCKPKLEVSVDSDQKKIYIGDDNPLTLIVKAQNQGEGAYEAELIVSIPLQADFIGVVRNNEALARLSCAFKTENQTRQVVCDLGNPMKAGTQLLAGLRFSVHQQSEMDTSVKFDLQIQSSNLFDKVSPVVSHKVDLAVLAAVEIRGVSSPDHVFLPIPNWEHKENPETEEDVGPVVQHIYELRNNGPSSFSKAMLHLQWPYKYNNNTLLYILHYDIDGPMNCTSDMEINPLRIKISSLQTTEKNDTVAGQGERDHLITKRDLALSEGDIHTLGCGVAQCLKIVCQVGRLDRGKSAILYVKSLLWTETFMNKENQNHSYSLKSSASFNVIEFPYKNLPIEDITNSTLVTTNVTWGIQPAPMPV
T1 sequence (P05106 27-718, chain 2 of 2): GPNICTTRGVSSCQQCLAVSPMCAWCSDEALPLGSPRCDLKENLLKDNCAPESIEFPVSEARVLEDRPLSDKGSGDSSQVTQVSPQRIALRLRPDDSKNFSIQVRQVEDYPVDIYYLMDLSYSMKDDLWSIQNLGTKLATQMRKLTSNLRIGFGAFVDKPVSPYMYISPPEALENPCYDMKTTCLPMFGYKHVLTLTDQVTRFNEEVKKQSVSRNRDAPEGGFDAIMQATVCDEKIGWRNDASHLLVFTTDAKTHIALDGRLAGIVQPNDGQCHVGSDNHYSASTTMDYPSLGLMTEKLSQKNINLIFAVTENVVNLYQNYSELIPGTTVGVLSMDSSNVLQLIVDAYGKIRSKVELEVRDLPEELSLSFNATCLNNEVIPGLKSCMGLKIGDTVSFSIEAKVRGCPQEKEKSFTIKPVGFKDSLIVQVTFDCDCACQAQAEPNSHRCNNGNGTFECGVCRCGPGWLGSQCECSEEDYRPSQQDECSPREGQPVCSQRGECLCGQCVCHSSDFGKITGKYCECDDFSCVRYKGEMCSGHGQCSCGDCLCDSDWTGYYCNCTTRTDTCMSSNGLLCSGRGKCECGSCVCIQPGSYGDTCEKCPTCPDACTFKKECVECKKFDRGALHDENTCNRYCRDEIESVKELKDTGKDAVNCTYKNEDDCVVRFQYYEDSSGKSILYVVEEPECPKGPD
assay-details: ELISA, coated integrin, anti-MICA-HRP
The reader will find reported αvβ3 signal/ng values listed item by item below.
Answer with a number only, understood to be in signal/ng MICA.

Here are 4 binders together with their reported answers.
Q: Given the binder soluble MICA generated from pKK49 (loop 3 insert extended 3.3sp) (designed binder, From pSW276 (no N-terminal His tag, Lys125); secreted by 293T cells; also called 3-3.3sp) EPHSLRYNLTVLSWDGSVQSGFLTEVHLDGQPFLRCDRQKCRAKPQGQWAEDVLGNKTWDRETRDLTGNGKDLRMTLAHIKDQKEGLHSLQEIRVCEIHEDNSTRSSQHFYYDGELFLSQNLETKEWTMPQSSRAQTLAMNVRNFLKEDAMKTKTHYHAMHADCLQELRRYLKSGVVLRRTVPPMVNVTRSEASEGNITVTCRASGFYPWNITLSWRQDGVSLSHDTQQWGDVLPDGNGTYQTWVATRISGGSGGGSRVPRGDSDLTSGGSGGGCYMEHSGNHSTHPVPSGK , what is its reported αvβ3 signal/ng?
A: 5.86

Q: Tell me the measured αvβ3 signal/ng of soluble MICA generated from pKK51 (loop 3 insert extended 5.3sp) (designed binder, From pSW276 (no N-terminal His tag, Lys125); secreted by 293T cells; also called 3-5.3sp) EPHSLRYNLTVLSWDGSVQSGFLTEVHLDGQPFLRCDRQKCRAKPQGQWAEDVLGNKTWDRETRDLTGNGKDLRMTLAHIKDQKEGLHSLQEIRVCEIHEDNSTRSSQHFYYDGELFLSQNLETKEWTMPQSSRAQTLAMNVRNFLKEDAMKTKTHYHAMHADCLQELRRYLKSGVVLRRTVPPMVNVTRSEASEGNITVTCRASGFYPWNITLSWRQDGVSLSHDTQQWGDVLPDGNGTYQTWVATRISGGSGGGSHLARGDDLTYSGGSGGGCYMEHSGNHSTHPVPSGK , please.
A: 7.2

Q: Entry under review: soluble MICA generated from pKK48 (loop 3 insert extended 3.2sp) (designed binder, From pSW276 (no N-terminal His tag, Lys125); secreted by 293T cells; also called 3-3.2sp) EPHSLRYNLTVLSWDGSVQSGFLTEVHLDGQPFLRCDRQKCRAKPQGQWAEDVLGNKTWDRETRDLTGNGKDLRMTLAHIKDQKEGLHSLQEIRVCEIHEDNSTRSSQHFYYDGELFLSQNLETKEWTMPQSSRAQTLAMNVRNFLKEDAMKTKTHYHAMHADCLQELRRYLKSGVVLRRTVPPMVNVTRSEASEGNITVTCRASGFYPWNITLSWRQDGVSLSHDTQQWGDVLPDGNGTYQTWVATRISGGSGGGSTSRGDHPRTQSGGSGGGCYMEHSGNHSTHPVPSGK . Reported αvβ3 signal/ng?
A: 6.08

Q: Need αvβ3 signal/ng of soluble MICA generated from pKK46 (loop 1 insert extended 5.1sp) (designed binder, From pKK34 (His6, Glu125); secreted by 293T cells; also called 1-5.1sp) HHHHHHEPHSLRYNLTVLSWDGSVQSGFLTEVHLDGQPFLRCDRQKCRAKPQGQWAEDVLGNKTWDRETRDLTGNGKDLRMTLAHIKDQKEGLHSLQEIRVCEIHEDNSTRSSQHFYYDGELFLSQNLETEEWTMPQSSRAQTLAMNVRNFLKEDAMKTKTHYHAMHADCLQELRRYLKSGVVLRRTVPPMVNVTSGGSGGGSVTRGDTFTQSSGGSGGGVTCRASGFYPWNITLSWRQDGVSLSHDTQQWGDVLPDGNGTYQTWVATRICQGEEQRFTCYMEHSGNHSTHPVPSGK , thanks.
A: 9.2

New cases:
Q: Given the binder soluble MICA generated from pKK37 (loop 1 insert 3.2) (designed binder, From pKK34 (His6, Glu125); secreted by 293T cells; also called 1-3.2) HHHHHHEPHSLRYNLTVLSWDGSVQSGFLTEVHLDGQPFLRCDRQKCRAKPQGQWAEDVLGNKTWDRETRDLTGNGKDLRMTLAHIKDQKEGLHSLQEIRVCEIHEDNSTRSSQHFYYDGELFLSQNLETEEWTMPQSSRAQTLAMNVRNFLKEDAMKTKTHYHAMHADCLQELRRYLKSGVVLRRTVPPMVNVTRTSRGDHPRTQVTCRASGFYPWNITLSWRQDGVSLSHDTQQWGDVLPDGNGTYQTWVATRICQGEEQRFTCYMEHSGNHSTHPVPSGK , what is its reported αvβ3 signal/ng?
A: 22.4

Q: Bench note: what αvβ3 signal/ng did soluble MICA generated from pKK39 (loop 1 insert 3.4) (designed binder, From pKK34 (His6, Glu125); secreted by 293T cells; also called 1-3.4) HHHHHHEPHSLRYNLTVLSWDGSVQSGFLTEVHLDGQPFLRCDRQKCRAKPQGQWAEDVLGNKTWDRETRDLTGNGKDLRMTLAHIKDQKEGLHSLQEIRVCEIHEDNSTRSSQHFYYDGELFLSQNLETEEWTMPQSSRAQTLAMNVRNFLKEDAMKTKTHYHAMHADCLQELRRYLKSGVVLRRTVPPMVNVTRSARGDSDHRVTCRASGFYPWNITLSWRQDGVSLSHDTQQWGDVLPDGNGTYQTWVATRICQGEEQRFTCYMEHSGNHSTHPVPSGK show?
A: 18

Q: Param item = soluble MICA generated from pKK42 (loop 1 insert 5.3) (designed binder, From pKK34 (His6, Glu125); secreted by 293T cells; also called 1-5.3) HHHHHHEPHSLRYNLTVLSWDGSVQSGFLTEVHLDGQPFLRCDRQKCRAKPQGQWAEDVLGNKTWDRETRDLTGNGKDLRMTLAHIKDQKEGLHSLQEIRVCEIHEDNSTRSSQHFYYDGELFLSQNLETEEWTMPQSSRAQTLAMNVRNFLKEDAMKTKTHYHAMHADCLQELRRYLKSGVVLRRTVPPMVNVTHLARGDDLTYVTCRASGFYPWNITLSWRQDGVSLSHDTQQWGDVLPDGNGTYQTWVATRICQGEEQRFTCYMEHSGNHSTHPVPSGK ; retrieve measured αvβ3 signal/ng.
A: 21.2

Q: αvβ3 signal/ng lookup needed for soluble MICA generated from pKK55 (tight loop 1 insert T-5.1) (designed binder, From pSW324 (from pKK34: His6, Glu125); secreted by 293T cells; also called 1-T-5.1) HHHHHHEPHSLRYNLTVLSWDGSVQSGFLTEVHLDGQPFLRCDRQKCRAKPQGQWAEDVLGNKTWDRETRDLTGNGKDLRMTLAHIKDQKEGLHSLQEIRVCEIHEDNSTRSSQHFYYDGELFLSQNLETEEWTMPQSSRAQTLAMNVRNFLKEDAMKTKTHYHAMHADCLQELRRYLKSGVVLRRTVPPMVNVTRGDTFTQSCRASGFYPWNITLSWRQDGVSLSHDTQQWGDVLPDGNGTYQTWVATRICQGEEQRFTCYMEHSGNHSTHPVPSGK , thanks.
A: 14

Q: Which αvβ3 signal/ng value belongs to soluble MICA generated from pKK50 (loop 3 insert extended 5.1sp) (designed binder, From pSW276 (no N-terminal His tag, Lys125); secreted by 293T cells; also called 3-5.1sp) EPHSLRYNLTVLSWDGSVQSGFLTEVHLDGQPFLRCDRQKCRAKPQGQWAEDVLGNKTWDRETRDLTGNGKDLRMTLAHIKDQKEGLHSLQEIRVCEIHEDNSTRSSQHFYYDGELFLSQNLETKEWTMPQSSRAQTLAMNVRNFLKEDAMKTKTHYHAMHADCLQELRRYLKSGVVLRRTVPPMVNVTRSEASEGNITVTCRASGFYPWNITLSWRQDGVSLSHDTQQWGDVLPDGNGTYQTWVATRISGGSGGGSVTRGDTFTQSSGGSGGGCYMEHSGNHSTHPVPSGK ?
A: 5.85

Every entry's value here was drawn from patent US20150165065A1.
